# SYSTEM: hKOR (Homo sapiens, UniProt P41145)
# Sequence (P41145 whole entry): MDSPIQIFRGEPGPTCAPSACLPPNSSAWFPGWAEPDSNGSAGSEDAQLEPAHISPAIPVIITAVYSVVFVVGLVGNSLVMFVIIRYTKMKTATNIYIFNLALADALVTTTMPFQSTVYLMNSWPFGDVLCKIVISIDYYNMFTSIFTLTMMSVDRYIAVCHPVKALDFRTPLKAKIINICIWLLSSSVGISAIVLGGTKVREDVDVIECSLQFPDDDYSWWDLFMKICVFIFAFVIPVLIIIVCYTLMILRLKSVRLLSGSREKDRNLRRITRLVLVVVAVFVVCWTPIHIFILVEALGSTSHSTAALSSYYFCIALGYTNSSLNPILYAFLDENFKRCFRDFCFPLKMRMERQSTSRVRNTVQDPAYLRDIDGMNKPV
# ASSAY_METHOD_TEXT: Radioligand binding assay (Eurofins Cerep), [3H]U69,593 displacement
# CONDITION_SUMMARY: Table A4, data summary #2; read-out: KOR Ki ± SEM
# log10 of Ki per record follows
Hello, just confirming the data are log10 of Ki with units of µM.

MOLECULE: CC[C@@H]1CN2CCc3c([nH]c4cccc(OC)c34)[C@@H]2C[C@@H]1/C(=C\OC)C(=O)OC [Mitragynine, mitragynine, reference compound]
log10 of Ki: -0.58

MOLECULE: CC[C@@H]1CN2CCc3c([nH]c4cccc(OC)c34)[C@@H]2C[C@@H]1/C(=C\OC)C(=O)N(C)C [SUSM-501]
log10 of Ki: 0.49

MOLECULE: CC[C@@H]1CN2CC[C@@]3(O)C(=Nc4cccc(OC)c43)[C@@H]2C[C@@H]1/C(=C\OC)C(=O)OC [7-Hydroxy Mitragynine, reference compound]
log10 of Ki: -0.35

MOLECULE: CC[C@@H]1CN2CCc3c([nH]c4cccc(OC)c34)[C@@H]2C[C@@H]1/C(=C\OC)C(=O)Nc1ccccc1 [SUSM-528]
log10 of Ki: 0.81

Prompt: Look up and report measured log10 of Ki for this entry: [2H]C([2H])([2H])N(C(=O)/C(=C/OC)[C@H]1C[C@H]2c3[nH]c4cccc(OC)c4c3CCN2C[C@H]1CC)C([2H])([2H])[2H] [SUSM-566]
Completion: 0.26

Prompt: Look up and report measured log10 of Ki for this entry: "CC[C@@H]1CN2CCc3c([nH]c4cccc(OC)c34)[C@@H]2C[C@@H]1/C(=C\OC)C(=O)N(C)C1CCCC1"
Completion: 0.66

Prompt: Look up and report measured log10 of Ki for this entry: CC[C@@H]1CN2CCc3c([nH]c4cccc(OC)c34)[C@@H]2C[C@@H]1/C(=C\OC)C(=O)N(C)C1CCCCC1 [SUSM-523]
Completion: 0.29

Prompt: Look up and report measured log10 of Ki for this entry: CC[C@@H]1CN2CCc3c([nH]c4cccc(OC)c34)[C@@H]2C[C@@H]1/C(=C\OC)C(=O)N1CCCCC1 [SUSM-518]
Completion: 0.87

Prompt: Look up and report measured log10 of Ki for this entry: CC[C@@H]1CN2CC[C@@]3(O)C(=Nc4cccc(OC)c43)[C@@H]2C[C@@H]1/C(=C\OC)C(=O)N(C)C [SUSM-524]
Completion: 0.96

Prompt: Look up and report measured log10 of Ki for this entry: CCCN(C)C(=O)/C(=C/OC)[C@H]1C[C@H]2c3[nH]c4cccc(OC)c4c3CCN2C[C@H]1CC [SUSM-521]
Completion: 0.42

----------
# SYSTEM: α2A adrenergic receptor (Homo sapiens, UniProt P08913)
# Construct: Eurofins Cerep (contract screening)
# Sequence (P08913 1-465): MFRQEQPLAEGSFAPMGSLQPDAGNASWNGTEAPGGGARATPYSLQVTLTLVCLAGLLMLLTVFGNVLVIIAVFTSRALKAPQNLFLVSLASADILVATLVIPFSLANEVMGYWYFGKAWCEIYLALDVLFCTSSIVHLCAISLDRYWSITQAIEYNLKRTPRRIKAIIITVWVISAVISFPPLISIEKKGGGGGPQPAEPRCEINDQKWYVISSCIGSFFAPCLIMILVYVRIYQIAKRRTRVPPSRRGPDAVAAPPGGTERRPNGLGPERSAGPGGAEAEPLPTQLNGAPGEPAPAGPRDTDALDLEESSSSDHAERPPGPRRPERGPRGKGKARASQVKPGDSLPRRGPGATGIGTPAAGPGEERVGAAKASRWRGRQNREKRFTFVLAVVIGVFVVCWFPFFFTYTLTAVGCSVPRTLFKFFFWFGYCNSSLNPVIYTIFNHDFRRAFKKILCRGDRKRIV
# ASSAY_METHOD_TEXT: Radioligand binding assay (Eurofins Cerep), [3H]RX 821002 displacement
# CONDITION_SUMMARY: Alpha2A Ki ± SEM (nM), Table A1, data summary #1
# Ki per record follows
Please reply with the bare figure in nM and do not write the unit itself.

COMPOUND_STRING: CC[C@@H]1CN2CCc3c([nH]c4cccc(OC)c34)[C@@H]2C[C@@H]1/C(=C\OC)C(=O)N(C)C
READOUT_UNIT: nM
VAL: 1810

// below: Ki requested for another molecule
Prompt: Look up and report measured Ki for this entry: "CC[C@@H]1CN2CCc3c([nH]c4cccc(OC)c34)[C@@H]2C[C@@H]1/C(=C\OC)C(=O)Nc1ccccc1"
Completion: 6580

----------
# SYSTEM: hDOR (Homo sapiens, UniProt P41143)
# Sequence (P41143 whole entry): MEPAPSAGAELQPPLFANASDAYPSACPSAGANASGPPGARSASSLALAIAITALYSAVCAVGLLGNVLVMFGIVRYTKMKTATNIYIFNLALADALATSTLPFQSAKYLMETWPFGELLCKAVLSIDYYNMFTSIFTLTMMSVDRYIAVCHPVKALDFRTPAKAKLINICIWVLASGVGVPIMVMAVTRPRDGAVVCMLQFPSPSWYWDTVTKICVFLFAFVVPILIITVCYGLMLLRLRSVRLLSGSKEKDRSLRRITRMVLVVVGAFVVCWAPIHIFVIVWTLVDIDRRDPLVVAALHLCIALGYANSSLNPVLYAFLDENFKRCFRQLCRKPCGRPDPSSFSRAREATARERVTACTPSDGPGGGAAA
# ASSAY_METHOD_TEXT: Radioligand binding assay (Eurofins Cerep), [3H]DADLE displacement
# CONDITION_SUMMARY: Table 3-1; 3 independent experiments; read-out: Ki (nM ± SEM) DOR
# Ki per record follows
Please reply with the bare figure in nM and do not write the unit itself.

COMPOUND: CC[C@@H]1CN2CCc3c([nH]c4cccc(OC)c34)[C@@H]2C[C@@H]1/C(=C\OC)C(=O)OC [Mitragynine, mitragynine, reference compound]
READOUT_UNIT: nM
VAL: 6800

// below: Ki requested for another compound
Prompt: Look up and report measured Ki for this entry: CC[C@@H]1CN2CCc3c([nH]c4ccccc34)[C@@H]2C[C@@H]1/C(=C\OC)C(=O)OC [Corynantheidine, reference compound]
Completion: 2790

----------
# SYSTEM: hMOR (Homo sapiens)
# ASSAY_METHOD_TEXT: Radioligand binding assay (Eurofins Cerep), [3H]DAMGO displacement
# CONDITION_SUMMARY: Table B1′; read-out: MOR Ki ± SEM
MEASUREMENT_NAME: pKi
In plain terms, pKi is the concentration in mol/L turned into minus its base-10 logarithm.

Prompt: Look up and report measured pKi for this entry: COC(=O)CC1CCN2CCC(O)(c3ccccc3)CC2C1 (centres unmarked) [drawing 173]
Completion: 5.06

Prompt: Look up and report measured pKi for this entry: COC(=O)C=C1CCN2CCC(O)(c3ccc(F)cc3)CC2C1 (centres unmarked)
Completion: 6.17

----------
# SYSTEM: hKOR (Homo sapiens, UniProt P41145)
# ASSAY_METHOD_TEXT: Radioligand binding assay (Eurofins Cerep), [3H]U69,593 displacement
# CONDITION_SUMMARY: Table B1′; read-out: KOR Ki ± SEM
# pKi per record follows
In plain terms, pKi is the concentration in mol/L turned into minus its base-10 logarithm.

COMPOUND: COC(=O)C=C1CCN2CCC(O)(c3ccccc3)CC2C1 (stereo not drawn) [drawing 176]
pKi: 5.12

Prompt: Provide the reported pKi (system: hKOR (Homo sapiens, UniProt P41145)) for CC[C@@H]1CN2CCc3c([nH]c4cccc(OC)c34)[C@@H]2C[C@@H]1/C(=C\OC)C(=O)OC [Mitragynine, mitragynine, reference compound]
Completion: 5.82

Prompt: Provide the reported pKi (system: hKOR (Homo sapiens, UniProt P41145)) for CC[C@@H]1CN2CCc3c([nH]c4ccccc34)[C@@H]2C[C@@H]1/C(=C\OC)C(=O)OC [Corynantheidine, reference compound]
Completion: 5.99

----------
# SYSTEM: UniProt P41143
# ASSAY_METHOD_TEXT: Radioligand binding assay (Eurofins Cerep), [3H]DADLE displacement
# CONDITION_SUMMARY: read-out: Ki (nM ± SEM) DOR; Table 3-3; 3 independent experiments
MEASUREMENT_NAME: Ki

Prompt: Look up and report measured Ki for this entry: "COC(=O)CC1CCN(CCc2c[nH]c3ccccc23)CC1"
Completion: > 10000 nM

----------
# SR: Selectivity Ratio (KiMOR/Kiα2A) per record follows
# SYSTEM: hMOR (Homo sapiens, UniProt P35372)
# Sequence (P35372 whole entry): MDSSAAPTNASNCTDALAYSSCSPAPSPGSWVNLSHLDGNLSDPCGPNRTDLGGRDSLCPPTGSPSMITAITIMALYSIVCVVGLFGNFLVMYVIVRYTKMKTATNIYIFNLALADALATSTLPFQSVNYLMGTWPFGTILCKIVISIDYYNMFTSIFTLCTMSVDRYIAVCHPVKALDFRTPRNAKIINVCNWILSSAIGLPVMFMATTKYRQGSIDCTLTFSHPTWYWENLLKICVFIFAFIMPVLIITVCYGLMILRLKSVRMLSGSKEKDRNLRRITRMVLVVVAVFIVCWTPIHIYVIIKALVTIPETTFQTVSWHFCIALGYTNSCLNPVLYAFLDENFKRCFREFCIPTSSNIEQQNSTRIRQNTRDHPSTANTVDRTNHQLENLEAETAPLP
# ASSAY_METHOD_TEXT: Radioligand binding assay (Eurofins Cerep), [3H]DAMGO displacement
# CONDITION_SUMMARY: Table 3-2

Reference set, count: 3
COMPOUND_STRING: CO/C=C(/C(=O)OC)C1CCN(CCc2c[nH]c3ccccc23)CC1
SYSTEM: hMOR (Homo sapiens, UniProt P35372)
MEASUREMENT_NAME: SR: Selectivity Ratio (KiMOR/Kiα2A)
VAL: 0.61

COMPOUND_STRING: COC=C(C(=O)OC)C1CCN(CCc2c[nH]c3ccc(OC)cc23)CC1
SYSTEM: hMOR (Homo sapiens, UniProt P35372)
MEASUREMENT_NAME: SR: Selectivity Ratio (KiMOR/Kiα2A)
VAL: 0.22

COMPOUND_STRING: COC(=O)CC1CCN(CCc2c[nH]c3ccccc23)CC1
SYSTEM: hMOR (Homo sapiens, UniProt P35372)
MEASUREMENT_NAME: SR: Selectivity Ratio (KiMOR/Kiα2A)
VAL: 1.58

Prompt: Look up and report measured SR: Selectivity Ratio (KiMOR/Kiα2A) for this entry: "COC=C(C(=O)OC)C1CCN(CCc2c[nH]c3c(OC)cccc23)CC1"
Completion: 1.04
